Source listed as patent US12410208B2.

Biological target: biotinylated human Gal-3 (hGal-3) (Homo sapiens, UniProt P17931)
Sequence (P17931 whole entry): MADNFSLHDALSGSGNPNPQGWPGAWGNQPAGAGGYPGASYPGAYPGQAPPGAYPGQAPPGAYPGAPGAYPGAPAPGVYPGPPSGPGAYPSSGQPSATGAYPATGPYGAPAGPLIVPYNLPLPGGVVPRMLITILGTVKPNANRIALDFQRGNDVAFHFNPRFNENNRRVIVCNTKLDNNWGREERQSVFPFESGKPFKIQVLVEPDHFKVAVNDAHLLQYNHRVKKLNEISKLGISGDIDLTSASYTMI
Test: Competitive binding assay: biotinylated hGal-3 binding to microplate-adsorbed asialofetuin (ASF), spectrophotometric
Conditions: Table 12; hGal-3; read-out: IC50 (Gal-3 inhibition)
READOUT: pIC50
Numbers only, as −log10 of the molar value.

Study these solved cases before continuing.
COMPOUND | TEST_TARGET | pIC50
CO[C@@H]1[C@@H](n2cc(-c3cc(F)c(F)c(F)c3)nn2)[C@@H](O)[C@@H](CO)O[C@H]1SC(C(=O)NCCC(C)(C)C)C1(O)CCC(F)(F)CC1 (stereo partly shown) | biotinylated human Gal-3 (hGal-3) (Homo sapiens, UniProt P17931) | 6.49
CO[C@@H]1[C@@H](n2cc(-c3cc(F)c(F)c(F)c3)nn2)[C@@H](O)[C@@H](CO)O[C@H]1SC(C(=O)N(C)C1CCOCC1)C1(O)CCC(F)(F)CC1 (stereo partly shown) | biotinylated human Gal-3 (hGal-3) (Homo sapiens, UniProt P17931) | 7.15
CO[C@@H]1[C@@H](n2cc(-c3cc(F)c(F)c(F)c3)nn2)[C@@H](O)[C@@H](CO)O[C@H]1S[C@H](C(=O)N(C)CC(C)(C)F)C1(O)CCC(F)(F)CC1 [Example 2.44.222S.I.] | biotinylated human Gal-3 (hGal-3) (Homo sapiens, UniProt P17931) | 8.00
CO[C@@H]1[C@@H](n2cc(-c3cc(F)c(F)c(F)c3)nn2)[C@@H](O)[C@@H](CO)O[C@H]1S[C@@H](C(=O)N(C)CC(C)(C)F)C1(O)CCC(F)(F)CC1 [Example 2.44.222R.I.] | biotinylated human Gal-3 (hGal-3) (Homo sapiens, UniProt P17931) | 5.10
CO[C@@H]1[C@@H](n2cc(-c3cc(F)c(F)c(F)c3)nn2)[C@@H](O)[C@@H](CO)O[C@H]1SC(C(=O)N(C)CC(F)(F)F)C1(O)CCC(F)(F)CC1 (stereo partly shown) | biotinylated human Gal-3 (hGal-3) (Homo sapiens, UniProt P17931) | 6.74
CO[C@@H]1[C@@H](n2cc(-c3cc(F)c(F)c(F)c3)nn2)[C@@H](O)[C@@H](CO)O[C@H]1SC(C(=O)NC(C)C)C1(O)CCC(F)(F)CC1 (stereo partly shown) | biotinylated human Gal-3 (hGal-3) (Homo sapiens, UniProt P17931) | 7.05
CO[C@@H]1[C@@H](n2cc(-c3cc(F)c(F)c(F)c3)nn2)[C@@H](O)[C@@H](CO)O[C@H]1SC(C(=O)N(C)CC1CC1)C1(O)CCC(F)(F)CC1 (stereo partly shown) | biotinylated human Gal-3 (hGal-3) (Homo sapiens, UniProt P17931) | 7.52
CO[C@@H]1[C@@H](n2cc(-c3cc(F)c(F)c(F)c3)nn2)[C@@H](O)[C@@H](CO)O[C@H]1SC(C(=O)N1CCOCC1)C1(O)CCC(F)(F)CC1 (stereo partly shown) | biotinylated human Gal-3 (hGal-3) (Homo sapiens, UniProt P17931) | 7.15
CO[C@@H]1[C@@H](n2cc(-c3cc(F)c(F)c(F)c3)nn2)[C@@H](O)[C@@H](CO)O[C@H]1SC(C(=O)N(C)CC(C)(C)F)C1(O)CCC(F)(F)CC1 (stereo partly shown) | biotinylated human Gal-3 (hGal-3) (Homo sapiens, UniProt P17931) | 7.30

query: Give its pIC50 value. Item: CO[C@@H]1[C@@H](n2cc(-c3cc(F)c(F)c(F)c3)nn2)[C@@H](O)[C@@H](CO)O[C@H]1SC(C(=O)N(C)C(C)C)C1(O)CCC(F)(F)CC1 (stereo partly shown)
result: 7.10
